experimental-target: Neurotensin receptor type 1 (Homo sapiens)
protocol-notes: agonism at neurotensin receptor 1, calcium rise – cell-based, fluorescence, calcium flux, single concentration, SAR follow-up (AID 602466)
particulars: NTR1-expressing cells, at 30 µM (top of the series)
assay-metric: activation (%)

[A] COc1cc2c3nnc(-c4ccc(F)cc4)c-3cn(Cc3ccc(C)cc3)c2cc1OC
[B] COc1cccc(OC)c1-c1nc(C(=O)NC2(C(=O)O)C3CC4CC(C3)CC2C4)cn1-c1ccnc2cc(Cl)ccc12 (centres undefined)
Ask: Just tell me: smaller activation value, A or B ? Mark your answer with the label of the selected entry.
Reply: B

[A] COc1cccc(OC)c1-c1nc(C(=O)N[C@@H](CC(C)C)C(=O)O)cn1-c1cccc2ccccc12
[B] Cc1ccc(Cn2cc3c(-c4ccc(F)cc4)nnc-3c3cc4c(cc32)OCO4)cc1
[C] COc1cc2c3nnc(-c4ccc(F)cc4)c-3cn(Cc3ccccc3N(C)C)c2cc1OC
[D] COc1cc2c3nnc(-c4ccc(F)cc4)c-3cn(Cc3ccc(OC(F)(F)F)cc3)c2cc1OC
Ask: Order the records, beginning with the lowest activation and ending with the highest. API: response body holds the labels in the requested order.
Reply: D, B, C, A
(D: 2.56%, B: 13.4%, C: 37.2%, A: 110%)

Origin of values: PubChem BioAssay AID602466
